# TEST_PROTOCOL: log P determination by HPLC on reversed-phase columns (EEC Directive 79/831 Annex V.A8)
# Assay type: physicochemical
# STATED_CONDITIONS: pH 2.7
chromatographic logP values by entry
I only need the number, thanks.

>  <ITEM_SMILES>
Cc1cc(F)cc(C(=O)NC2CC2)c1NC(=O)c1cc(Cn2ncc(C(F)(F)F)n2)nn1-c1ncccc1Cl

>  <chromatographic logP>
2.86

$$$$

Noted for Cc1cc(I)cc(C(=O)NC2CC2)c1NC(=O)c1cc(Cn2ncc(C(F)(C(F)(F)F)C(F)(F)F)n2)nn1-c1ncccc1Cl : its chromatographic logP reads 4.26

Record summary for CNC(=O)c1cc(C#N)cc(C)c1NC(=O)c1cc(Cn2cc(C3CC3)nn2)nn1-c1ncccc1Cl : reported chromatographic logP = 1.86

Entry Cc1cc(C#N)cc(C(N)=O)c1NC(=O)c1cc(Cn2ncc(C(F)(F)F)n2)nn1-c1ncccc1Cl — recorded chromatographic logP = 2.41

The reported value for Cc1cc(C#N)cc(C(=O)NC(C)C)c1NC(=O)c1cc(Cn2ncc(C(F)(F)C(F)(F)F)n2)nn1-c1ncccc1Cl in terms of chromatographic logP is 3.52

Per the record, Cc1cc(Cl)cc(C(N)=O)c1NC(=O)c1cc(Cn2cc(C(F)(F)C(F)(F)F)nn2)nn1-c1ncccc1Cl has chromatographic logP of 2.78

Input CC(C)NC(=O)c1cc(Cl)cc(Cl)c1NC(=O)c1cc(Cn2ncc(C(F)(F)F)n2)nn1-c1ncccc1Cl . Output chromatographic logP: 3.41

----------
# Tested on: caterpillars of the armyworm (Spodoptera frugiperda)
# TEST_PROTOCOL: Spodoptera frugiperda test (SPODFR spray treatment)
# Type: in vivo
# STATED_CONDITIONS: 168 h, 100 g/ha, after 7 days, read-out: activity in %
READOUT_KIND: pest or weed control at 100 g/ha (%)
Number only, in %; omit the unit.

Worked set:
>  <ITEM_SMILES>
Cc1cc(C#N)cc(C(=O)NC(C)(C)C)c1NC(=O)c1cc(Cn2nc(C(F)(F)F)c(C(F)(F)F)n2)nn1-c1ncccc1Cl

>  <UNIT>
%

>  <pest or weed control at 100 g/ha>
100

$$$$
>  <ITEM_SMILES>
Cc1cc(Cl)cc(C(=O)NCC2CC2)c1NC(=O)c1cc(Cn2nc(C(F)(F)F)c(C(F)(F)F)n2)nn1-c1ncccc1Cl

>  <UNIT>
%

>  <pest or weed control at 100 g/ha>
100

$$$$

pest or weed control at 100 g/ha for caterpillars of the armyworm (Spodoptera frugiperda) with input Cc1cc(C#N)cc(C(=O)NC(C)C)c1NC(=O)c1cc(Cn2ncc(C(F)(F)F)n2)nn1-c1ccccc1Cl equals 100

----------
# TEST_PROTOCOL: log P determination by HPLC on reversed-phase columns (EEC Directive 79/831 Annex V.A8)
# Type: physicochemical
# STATED_CONDITIONS: pH 2.7
Record class 1 whenever chromatographic logP is at 3 or higher; record class 0 when lower.

Check out these entries, answers already filled in.
>  <COMPOUND>
CNC(=O)c1cc(I)cc(C)c1NC(=O)c1cc(Cn2ncc(C(F)(F)C(F)(F)F)n2)nn1-c1ncccc1Cl [Example 358]

>  <ANSWER_LABEL>
class 1

$$$$
>  <COMPOUND>
CNC(=O)c1cc(C#N)cc(C)c1NC(=O)c1cc(Cn2nnc3cc(Br)ccc32)nn1-c1ncccc1Cl [Example 94]

>  <ANSWER_LABEL>
class 0

$$$$
>  <COMPOUND>
Cc1cc(Cl)cc(C(=O)NCC2CC2)c1NC(=O)c1cc(Cn2cc(C(F)(F)C(F)(F)F)nn2)nn1-c1ncccc1Cl [Example 305]

>  <ANSWER_LABEL>
class 1

$$$$

Reported chromatographic logP at or above 3? CNC(=O)c1cc(Cl)cc(C)c1NC(=O)c1cc(Cn2nc3ccc(Cl)cc3n2)nn1-c1ncccc1Cl [Example 72]
class 1

Does the reported chromatographic logP for Cc1cc(Cl)cc(C(=O)NC2CC2)c1NC(=O)c1cc(Cn2ncc(C(F)(C(F)(F)F)C(F)(F)F)n2)nn1-c1ncccc1Cl [Example 264] fall at or above the 3 mark?
class 1

----------
# TEST_PROTOCOL: log P determination by HPLC on reversed-phase columns (EEC Directive 79/831 Annex V.A8)
# Type: physicochemical
# STATED_CONDITIONS: pH 2.7
Here, each record is paired with measured chromatographic logP data.

>  <MOLECULE>
CNC(=O)c1cc(Cl)cc(C)c1NC(=O)c1cc(Cn2nc3c(Cl)c(Cl)c(Cl)c(Cl)c3n2)nn1-c1ncccc1Cl

>  <chromatographic logP>
4.66

$$$$
>  <MOLECULE>
Cc1cc(Cl)cc(C(=O)NC(C)C)c1NC(=O)c1cc(Cn2ncc(C(F)(F)F)n2)nn1-c1ncccc1Cl

>  <chromatographic logP>
3.48

$$$$
>  <MOLECULE>
Cc1cc(I)cc(C(=O)NCC#N)c1NC(=O)c1cc(Cn2cc(C(F)(F)F)nn2)nn1-c1ncccc1Cl

>  <chromatographic logP>
2.82

$$$$
>  <MOLECULE>
Cc1cc(I)cc(C(=O)NC(C)(C)C)c1NC(=O)c1cc(Cn2ncc(C(F)(F)C(F)(F)F)n2)nn1-c1ncccc1Cl

>  <chromatographic logP>
4.47

$$$$
>  <MOLECULE>
Cc1cc(C#N)cc(C(N)=O)c1NC(=O)c1cc(Cn2ncc(C(F)(C(F)(F)F)C(F)(F)F)n2)nn1-c1ncccc1Cl

>  <chromatographic logP>
3.19

$$$$
>  <MOLECULE>
Cc1cc(C#N)cc(C(=O)NC(C)(C)C)c1NC(=O)c1cc(Cn2ncc(C3CC3)n2)nn1-c1ncccc1Cl

>  <chromatographic logP>
3.12

$$$$
>  <MOLECULE>
CNC(=O)c1cc(C#N)cc(C)c1NC(=O)c1cc(Cn2cc(-c3ccccc3Cl)nn2)nn1-c1ncccc1Cl

>  <chromatographic logP>
2.63

$$$$
>  <MOLECULE>
CCNC(=O)c1cc(I)cc(C)c1NC(=O)c1cc(Cn2ncc(C(F)(F)C(F)(F)F)n2)nn1-c1ncccc1Cl

>  <chromatographic logP>
3.89

$$$$
>  <MOLECULE>
CNC(=O)c1cc(F)cc(C)c1NC(=O)c1cc(Cn2ncc(C(F)(F)F)n2)nn1-c1ncccc1Cl

>  <chromatographic logP>
2.63

$$$$
>  <MOLECULE>
Cc1cc(C#N)cc(C(=O)NC(C)(C)C)c1NC(=O)c1cc(Cn2nc3ccc(C(F)(F)F)cc3n2)nn1-c1ncccc1Cl

>  <chromatographic logP>
3.94

$$$$

Record Cc1cc(C#N)cc(C(=O)NC(C)(C)C)c1NC(=O)c1cc(Cn2ncc(C(F)(F)F)n2)nn1-c1ncccc1Cl , field chromatographic logP: 3.46

// sample CNC(=O)c1cc(C#N)cc(C)c1NC(=O)c1cc(Cn2nnc3cc(C(F)(F)F)ccc32)nn1-c1ncccc1Cl , its chromatographic logP was 2.76

chromatographic logP reported for this molecule Cc1cc(I)cc(C(=O)NCC2CC2)c1NC(=O)c1cc(Cn2ncc(C(F)(F)C(F)(F)F)n2)nn1-c1ncccc1Cl : 4.22

Value of measured chromatographic logP for the entry Cc1cc(I)cc(C(=O)NC(C)C2CC2)c1NC(=O)c1cc(Cn2ncc(C(F)(F)C(F)(F)F)n2)nn1-c1ncccc1Cl (centres unmarked) : 4.45

----------
# TEST_PROTOCOL: log P determination by HPLC on reversed-phase columns (EEC Directive 79/831 Annex V.A8)
# Type: physicochemical
# STATED_CONDITIONS: pH 2.7
Listing of entries alongside the reported chromatographic logP.
Write the number on its own, no unit after it.

>  <MOLECULE>
CCNC(=O)c1cc(I)cc(C)c1NC(=O)c1cc(Cn2ncc(C(F)(F)F)n2)nn1-c1ncccc1Cl [Example 160]

>  <READOUT_KIND>
chromatographic logP

>  <NUMBER>
3.5

$$$$

# chromatographic logP (molecule: Cc1cc(Cl)cc(C(=O)NC(C)(C)C)c1NC(=O)c1cc(Cn2cc(C(F)(F)F)nn2)nn1-c1ncccc1Cl [Example 191] ) is 3.44

Recorded chromatographic logP (molecule CNC(=O)c1cc(C#N)cc(C)c1NC(=O)c1cc(Cn2ncc(C(F)(F)C(F)(F)F)n2)nn1-c1ncccc1Cl [Example 365] ): 3.04

Briefly, chromatographic logP measured for Cc1cc(C#N)cc(C(=O)NC2CC2)c1NC(=O)c1cc(Cn2ncc(C(F)(F)F)n2)nn1-c1ncccc1Cl [Example 126] : 2.9

In plain terms, Cc1cc(C#N)cc(C(=O)NC(C)(C)C)c1NC(=O)c1cc(Cn2cc(C(C)C)nn2)nn1-c1ncccc1Cl [Example 51] has a documented chromatographic logP of 2.74

// Cc1cc(C#N)cc(C(=O)NC(C)(C)C)c1NC(=O)c1cc(Cn2nnc3c(Cl)c(Cl)c(Cl)cc32)nn1-c1ncccc1Cl [Example 108] : chromatographic logP value = 4.18

Item: Cc1cc(Cl)cc(C(=O)NC(C)(C)C)c1NC(=O)c1cc(Cn2ncc(C(C)(C)C)n2)nn1-c1ncccc1Cl [Example 48] | chromatographic logP: 4.25
